Reported inhibition of growth at 10 µM values follow for various compounds
# System: CAKI-1
# Experiment Summary: Cytotoxicity against human CAKI-1 cells assessed as growth inhibition at 10 uM relative to control
# Type: functional
# Assay Setup: read-out: GI
Express it in %; write the number only.

# example entries with known answers
# Structure Notation, Data Value
rows = [
    ("O=C(CSc1nc2ccccc2c(=O)n1-c1ccc(S(=O)(=O)Nc2ccc(Cl)nn2)cc1)NCc1ccccc1", 14),
    ("O=c1c2cc3ccccc3cc2[nH]c(=S)n1-c1ccc(S(=O)(=O)Nc2ccc(Cl)nn2)cc1", 10),
    ("O=C(CSc1nc2ccccc2c(=O)n1-c1ccc(Cl)c(Cl)c1)Nc1ccc(S(=O)(=O)Nc2ccc(Cl)nn2)cc1", 18),
    ("O=c1c2cccc(Br)c2[nH]c(=S)n1-c1ccc(S(=O)(=O)Nc2ccc(Cl)nn2)cc1", 13),
]

Turning now to a further record.
Give the reported inhibition of growth at 10 µM for this compound. O=C(CSc1nc2ccccc2c(=O)n1-c1ccc(S(=O)(=O)Nc2ccc(Cl)nn2)cc1)Nc1ccccc1
12
